- Test system: OVCAR-8 ovarian
- run.description: NCI-60 one-dose screen, 48 h (100 = growth as untreated, 0 = no growth, -100 = all killed)
- stated.conditions: 10 µM unless noted
Compounds without any hit were thinned out: in the full panel of roughly 83,000, 20% have a hit.
assay.metric: growth (%)

- molecule: "COc1cc(C2NC(c3cc(OC)c(OC)c(OC)c3)C(C#N)(C#N)C2(C#N)C#N)cc(OC)c1OC (stereo not given)"
  readout.value: 106
- molecule: "O=C(Nc1cccc(Cl)c1)Oc1c(Br)c(Br)c(Br)c(Br)c1Br"
  readout.value: 88.9
- molecule: "Cc1c(C2=CCCCC2)c2ccccn2c1C(=O)c1cccc(S(=O)(=O)N2CCOCC2)c1"
  readout.value: 94.9
- molecule: "CCSc1ccc2c(c1)N(CCCN1CCN(C)CC1)c1ccccc1S2"
  readout.value: 76.3
- molecule: "O=c1nc2n(nc1/C=C/c1ccco1)CC(c1ccc(Cl)cc1)=NN2"
  readout.value: 67.9
- molecule: "Nc1nc(N)nc(NCc2ccccc2)n1"
  readout.value: 117
- molecule: "Nc1ccccc1NC(=O)c1ccc(CN2CCC/C(=C\\c3cccc(Cl)c3)C2=O)cc1"
  readout.value: 10.2
- molecule: "CCNNC(=O)[C@@H]1[C@H](c2cc(OC)c(OC)c(OC)c2)c2cc3c(cc2[C@H](O)[C@H]1CO)OCO3"
  readout.value: -13.3
- molecule: "OC(c1ccccc1)c1ccccn1 (stereo not given)"
  readout.value: 95.9
- molecule: "N/C(=N\\N=C\\c1cc2ccccc2[nH]1)N/N=C/c1cc2ccccc2[nH]1"
  readout.value: 97.4
- molecule: "O=C(Nc1sc2c(c1C(=O)O)CCCC2)c1cccc(C(F)(F)F)c1"
  readout.value: 94.6
- molecule: "CC(=O)OC1CCC2(C)C(CCC3C4CC=C(C(C)=O)C4(C)OC(=O)CC32)C1 (stereo not given)"
  readout.value: -20.4
- molecule: "Fc1ccc(C2CC(c3cccc(Nc4ccncc4)c3)=NN2c2ccc(Cl)cc2)cc1 (stereo not given)"
  readout.value: 22.6
- molecule: "CCCCCN1C=C/C(=C\\C(=O)N(C)c2cccc3ccccc23)c2ccccc21"
  readout.value: 98.4
- molecule: "C[C@]12C[C@H]1CC[C@]1(C)[C@@H]2CC[C@@]23C[C@H](CC[C@H]21)[C@@](O)(CO)C3"
  readout.value: 102
- molecule: "Cc1ccc(C2C3CC4CCCCC4N3[C@@]3(C(=O)Nc4cc(Cl)ccc43)C2C(=O)c2nc3ccccc3[nH]2)cc1 (stereo not given in full)"
  readout.value: 56.7
- molecule: "O=S(=O)(NCCCNc1nccc(-c2c(-c3cccc(O)c3)nc3occn23)n1)c1ccc(F)cc1"
  readout.value: 79
- molecule: "C[C@@H]1CN(Cc2ccc(/C=C/c3n[nH]c4ccc5nc(-c6cn[nH]c6C(F)(F)F)c6c(c5c34)CCCC6)cc2)C[C@H](C)O1"
  readout.value: 33.4
- molecule: "C#CCn1cc(C=C2C(=O)NC(=S)NC2=O)c2cc(Cl)ccc21"
  readout.value: 12.1
- molecule: "COc1ccc(C2CC(n3nnnc3-c3ccccc3)=NN2)cc1 (stereo not given)"
  readout.value: 61.6
